Experiment: Reduction of disulfide bonds with TCEP, folding monitored by CD spectroscopy
Format: physicochemical
Details: 2.5 mM TCEP (~100-fold molar excess), incubated for 3 hours
Positions of bridges follow the written chain, without caps; N, C: chain ends.
Quantity Measured: folding / secondary structure in the presence of the reductant TCEP (CD spectra)

[[record]]
substance = "HDPEKRKECEKKYTDPKKREECKRKA (cyclo(HDPEKRKECEKKYTDPKKREECKRKA); disulfide 9-22; not fully specified (some residues)) [NC_cHH_D1]"
endpoint_value = "lost secondary structure"

[[record]]
substance = "NPEDCRQDPEANKSPEECKKLK (cyclo(NPEDCRQDPEANKSPEECKKLK); disulfide 5-18; not fully specified (some residues)) [NC_cHHH_D1]"
endpoint_value = "lost secondary structure"

